- Test system: TDF;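 also: TDF denotes transformed human dermal fibroblasts of mesenchymal origin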
- ASSAY_NOTES: cell number relative to DMSO (% of DMSO); higher = more cells (less growth inhibition / toxicity)
- CONDITION_INFO: concentration: 10 µM; 24 h
REPORTED_PROPERTY: cell number

# MOLECULE, REPORTED_PROPERTY, REPORTED_RESULT
measured = [
    ("CN1CCCC1CCOC(C)(c1ccccc1)c1ccc(Cl)cc1 (stereo unspecified)", "cell number", 97.3),
    ("CN1CCc2cccc3c2C1Cc1ccc(O)c(O)c1-3.Cl [(R)-(-)-Apomorphine.HCl]", "cell number", 98.9),
    ("O[C@@H]1[C@@H](O)[C@H](OC/C=C/c2ccccc2)O[C@H](CO[C@@H]2OC[C@H](O)[C@H](O)[C@H]2O)[C@H]1O", "cell number", 103),
    ("CC(C)(C)n1nc(Cc2cccc3ccccc23)c2c(N)ncnc21", "cell number", 103),
    ("COc1cc2nccc(Oc3ccc(NC(=O)Nc4cc(C)on4)c(Cl)c3)c2cc1OC", "cell number", 101),
    ("COCCc1ccc(OCC(O)CNC(C)C)cc1 (stereo unspecified)", "cell number", 99.5),
]

Data origin: the supplement of paper PMC7156485
